- targetUnderTest: UniProt:Q99MT6
- Sequence (Q99MT6 whole entry): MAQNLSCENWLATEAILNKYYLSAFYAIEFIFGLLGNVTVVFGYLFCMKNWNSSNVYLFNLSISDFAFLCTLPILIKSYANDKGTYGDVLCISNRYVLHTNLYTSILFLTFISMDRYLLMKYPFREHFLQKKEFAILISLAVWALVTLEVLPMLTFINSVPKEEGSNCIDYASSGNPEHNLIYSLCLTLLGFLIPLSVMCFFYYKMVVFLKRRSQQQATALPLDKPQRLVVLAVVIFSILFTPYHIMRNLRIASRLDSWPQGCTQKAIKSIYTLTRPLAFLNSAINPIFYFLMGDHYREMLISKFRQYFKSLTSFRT
- testProtocol: cAMP assay, agonist potency at mSUCNR1
- Type: cell-based
- Parameters: expressed in transfected cells; host or cells: Flp-In T-REx 293
- reportedConditions: Flp-In T-REx 293 cells; mean ± SEM, minimum three independent experiments
measureName: cAMP mSUCNR1 pEC50
Give your answer as a number; write no unit.

// solved cases for cAMP mSUCNR1 pEC50 follow
INSERT INTO measurements (compound, targetundertest, measurename, reading) VALUES
  ('CC(C)(C)OC(=O)NCCCCCOc1ccc(-c2cccc(C(=O)N[C@@H](CC(=O)O)C(=O)O)n2)cc1 [Compound 15c]', 'UniProt:Q99MT6', 'cAMP mSUCNR1 pEC50', 5.68),
  ('CC(C)(C)OC(=O)NCCCOc1ccc(-c2cccc(C(=O)N[C@@H](CC(=O)O)C(=O)O)n2)cc1 [Compound 15a]', 'UniProt:Q99MT6', 'cAMP mSUCNR1 pEC50', 5.90),
  ('CC(C)(C)OC(=O)NCCCCCOc1ccc(-c2ccc(C(=O)N[C@@H](CC(=O)O)C(=O)O)o2)cc1', 'UniProt:Q99MT6', 'cAMP mSUCNR1 pEC50', 6.60);

Exam item: Consider the compound shown here: NCCCCCOc1ccc(-c2ccc(C(=O)N[C@@H](CC(=O)O)C(=O)O)o2)cc1 What is its recorded cAMP mSUCNR1 pEC50?
Marked response: 6.91

Exam item: Quick one: cAMP mSUCNR1 pEC50 of CC(C)(C)OC(=O)NCCOCCOc1ccc(-c2cccc(C(=O)N[C@@H](CC(=O)O)C(=O)O)n2)cc1 [Compound 15e] ?
Marked response: 6.01

Exam item: Look at this compound and give its reported cAMP mSUCNR1 pEC50. CCOc1ccc(-c2ccc(C(=O)N[C@@H](CC(=O)O)C(=O)O)o2)cc1
Marked response: 7.01

Exam item: // lookup cAMP mSUCNR1 pEC50 for NCCCOc1ccc(-c2ccc(C(=O)N[C@@H](CC(=O)O)C(=O)O)o2)cc1
Marked response: 7.10

Exam item: Report cAMP mSUCNR1 pEC50 for CC(C)(C)OC(=O)NCCCCOc1ccc(-c2cccc(C(=O)N[C@@H](CC(=O)O)C(=O)O)n2)cc1 [Compound 15b] please.
Marked response: 5.97

Exam item: Need cAMP mSUCNR1 pEC50 of CC(C)(C)OC(=O)NCCNCCCCCCOc1ccc(-c2ccc(C(=O)N[C@@H](CC(=O)O)C(=O)O)o2)cc1 , thanks.
Marked response: 7.40

Exam item: Which cAMP mSUCNR1 pEC50 value belongs to O=C(O)C[C@H](NC(=O)c1cccc(-c2ccc(OC(F)(F)F)cc2)n1)C(=O)O ?
Marked response: 6.58
